Assay: Rodent pharmacokinetic study
Format: in vivo, Male Wistar rats
Settings: male, Wistar, plasma; rat, oral 3 mg/kg vs intravenous 1 mg/kg; read-out: F (Bioavailability)
Protocol: Example-49: Rodent Pharmacokinetic Study Male Wistar rats (250±50 grams) were used as experimental animals. Animals were housed individually in polypropylene cages. […] After dosing of animal, each time point a 200 μL of blood sample was collected through the jugular vein and replenished with an equivalent volume of normal saline. […] Study samples were analyzed using calibration samples in the batch and quality control samples spread across the batch. […]
Where a name gives a salt, the structure may show the parent alone.
As shown below, each of these compounds has a reported bioavailability value.
Quote the value and follow it with the unit of measurement.

>  <Compound>
Cc1noc(-c2csc(OCCCN3CCN(c4nsc5ccccc45)CC3)n2)n1 [compound 12, oxalate]

>  <Val>
18%

$$$$

Kindly review the next compound as well.
bioavailability for Cc1nnc(-c2csc(OCCCN3CCN(c4nsc5ccccc45)CC3)n2)o1 [Example-2, oxalate] ? 46%

###

target: human adrenergic α1B receptor (Homo sapiens, UniProt P35368)
Sequence (P35368 whole entry): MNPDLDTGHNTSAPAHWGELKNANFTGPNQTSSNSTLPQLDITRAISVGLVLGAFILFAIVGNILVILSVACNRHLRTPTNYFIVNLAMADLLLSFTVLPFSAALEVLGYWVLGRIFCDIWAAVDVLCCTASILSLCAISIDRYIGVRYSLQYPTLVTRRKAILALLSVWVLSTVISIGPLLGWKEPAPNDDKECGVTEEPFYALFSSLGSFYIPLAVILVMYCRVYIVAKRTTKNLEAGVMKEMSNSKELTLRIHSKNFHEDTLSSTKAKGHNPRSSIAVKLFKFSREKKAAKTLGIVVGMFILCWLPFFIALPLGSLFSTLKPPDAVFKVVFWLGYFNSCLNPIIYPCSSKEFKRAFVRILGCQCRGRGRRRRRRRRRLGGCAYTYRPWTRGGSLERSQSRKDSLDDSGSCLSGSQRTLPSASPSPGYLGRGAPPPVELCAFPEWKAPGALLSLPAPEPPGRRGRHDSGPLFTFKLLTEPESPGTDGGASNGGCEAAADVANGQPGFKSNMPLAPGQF
Structures can show the parent of a compound that is named as a salt.
As shown below, each of these compounds has a reported log10(Ki) value.
The figures below represent log10 of Ki, where Ki is stated in nM.

Would you please look over these solved cases?
>  <Compound>
Cc1nc(-c2csc(OCCCN3CCN(c4nsc5ccccc45)CC3)n2)no1 [compound 10, oxalate]

>  <Val>
1.64

$$$$
>  <Compound>
Cc1nnc(-c2csc(OCCCN3CCN(c4nsc5ccccc45)CC3)n2)o1 [Example-1]

>  <Val>
1.10

$$$$
>  <Compound>
c1ccc2c(N3CCN(CCCOc4ccc(-c5cnco5)cn4)CC3)nsc2c1 [compound 22, oxalate]

>  <Val>
0.76

$$$$
>  <Compound>
Cc1nnc(-c2csc(OCCCN3CCC(c4noc5cc(F)ccc45)CC3)n2)o1 [compound 24, oxalate]

>  <Val>
0.18

$$$$
>  <Compound>
Cc1nnc(-c2csc(OCCCN3CCN(c4nsc5ccccc45)CC3)n2)o1 [Example-2, oxalate]

>  <Val>
1.12

$$$$

Kindly review the next compound as well.
log10(Ki) for Cc1noc(-c2csc(OCCCN3CCN(c4nsc5ccccc45)CC3)n2)n1 [compound 12, oxalate] ? 1.16

###

assay: Rodent pharmacokinetic study; assay type: in vivo, Male Wistar rats; conditions: male, Wistar; rat, oral (gavage), 3 mg/kg, plasma
Where a name gives a salt, the structure may show the parent alone.
As shown below, each of these compounds has a reported AUC(0-t) value.
Answer format: numeric, ng·h/mL implied, no suffix.

>  <Compound>
Cc1noc(-c2csc(OCCCN3CCN(c4nsc5ccccc45)CC3)n2)n1 [compound 12, oxalate]

>  <Reported Metric>
AUC(0-t)

>  <Unit Abbreviation>
ng·h/mL

>  <Val>
250

$$$$

Kindly review the next compound as well.
AUC(0-t) for Cc1nnc(-c2csc(OCCCN3CCN(c4nsc5ccccc45)CC3)n2)o1 [Example-2, oxalate] ? 795
